# ASSAY NOTES: ACEA_ER_80hr: ACEA Biosciences xCELLigence Real-Time Cell Analysis on Estrogen Receptor Agonism for Proliferation (AID 2282667)
# EXPERIMENTAL CONTEXT: T47D proliferation, impedance (xCELLigence), 80 h
Inconclusive results are not listed. The source made the active and inactive calls. The calls were made as follows: active = hit-call score of the fitted dose curve at least 0.9, where 1 is the maximum; inconclusive = response in the unintended direction; inactive = score below 0.9.
Just give me one of these, please: active, inactive

> print(dat)
                                    compound  answer.label
 1                CCNc1nc(Cl)nc(NC(C)(C)C)n1        active
 2         ClC(Cl)=C(c1ccc(Cl)cc1)c1ccccc1Cl      inactive
 3                      FC(F)(F)c1ccc(Cl)cc1      inactive
 4  O=C(O)C1C(C(=O)O)C2(Cl)C(Cl)=C(Cl)C1(Cl)C2(Cl)Cl (centres undefined)      inactive
 5                     COP(=O)(CCC(=O)NCO)OC      inactive
 6                  CCOC(=O)c1ccccc1C(=O)OCC      inactive
 7           O=S(=O)(c1ccc(O)cc1)c1ccc(O)cc1        active
 8                           CCOS(=O)(=O)OCC      inactive
 9                         CCOC(=O)c1ccccc1N      inactive
10  CCCN(CCC)c1c([N+](=O)[O-])cc(C(C)C)cc1[N+](=O)[O-]      inactive

input: Record lookup: outcome of this test for CCCCCCCc1ccc(O)cc1 ?
output: active

----------
# Read-out: Tumor necrosis factor (Homo sapiens)
# ASSAY NOTES: BSK_LPS_TNFa: BioMAP Diversity Plus: LPS Assay for Tumour Necrosis Factor alpha (TNFa) Biomarker Activity (AID 2283085)
# EXPERIMENTAL CONTEXT: primary human HUVEC with PBMC; actives raise or lower the signal
Activity calls are given as the source filed them. How the source made its calls: active means hit-call score of the fitted dose curve at least 0.9, where 1 is the maximum; inactive means score below 0.9.
Just give me one of these, please: y for active, n for inactive

input: Record lookup: outcome of this test for CCCCC(CC)COP(=O)(Oc1ccccc1)Oc1ccccc1 (stereo not given) ?
output: y

input: Record lookup: outcome of this test for O=C(O)C(F)(F)C(F)(F)C(=O)O ?
output: n

input: Record lookup: outcome of this test for c1ccc(OP(Oc2ccccc2)Oc2ccccc2)cc1 ?
output: n

input: Record lookup: outcome of this test for CCN(CC)c1ccccc1 ?
output: n

input: Record lookup: outcome of this test for O=[N+]([O-])c1ccccc1 ?
output: n

input: Record lookup: outcome of this test for [N-]=[N+]=[N-] ?
output: n

input: Record lookup: outcome of this test for O=C(O)C(Cl)Cl ?
output: n

input: Record lookup: outcome of this test for O=C(O)C(F)(OC(F)(F)C(F)(F)C(F)(F)F)C(F)(F)F (stereo not given) ?
output: n

input: Record lookup: outcome of this test for O=P1(N(CCCl)CCCl)NCCCO1 (stereo not given) ?
output: n

input: Record lookup: outcome of this test for CCOS(=O)(=O)OCC ?
output: n

input: Record lookup: outcome of this test for CC(Cl)(Cl)C(=O)O ?
output: n

input: Record lookup: outcome of this test for CCOP(=S)(S)OCC ?
output: n

input: Record lookup: outcome of this test for CC(Cc1ccc(OCC(=O)O)cc1)NCC(O)c1csc(C(F)(F)F)n1 (stereo not given) ?
output: n

input: Record lookup: outcome of this test for CCOP(=S)(NC(C)C)Oc1ccccc1C(=O)OC(C)C (stereo not given) ?
output: y

input: Record lookup: outcome of this test for ClC(Cl)c1ccccc1 ?
output: n
